Cited source: paper PMC4322620

Target: neurotensin receptors (HT-29 cells) (Homo sapiens)
Sequence (P30989 whole entry, looked up): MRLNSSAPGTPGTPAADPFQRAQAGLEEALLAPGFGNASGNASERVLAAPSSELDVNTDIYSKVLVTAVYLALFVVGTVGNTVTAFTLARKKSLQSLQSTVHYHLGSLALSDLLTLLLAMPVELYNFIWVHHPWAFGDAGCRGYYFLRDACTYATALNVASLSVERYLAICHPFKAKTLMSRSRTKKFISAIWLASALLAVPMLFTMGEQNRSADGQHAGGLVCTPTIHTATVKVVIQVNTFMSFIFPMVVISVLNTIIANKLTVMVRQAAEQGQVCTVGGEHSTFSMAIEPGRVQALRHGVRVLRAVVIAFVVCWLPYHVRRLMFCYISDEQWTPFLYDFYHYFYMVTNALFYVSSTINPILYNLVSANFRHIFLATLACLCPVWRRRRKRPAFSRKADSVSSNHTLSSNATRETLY
Type: cell-based
Where a SMILES comes first, the peptide text is derived from it. [ ]: non-standard residue; d: D form. pGlu = O=C1CC[C@@H](C(=O)O)N1
quantity measured: DC50/EC50
Respond numerically, and do not add a unit to the figure.

Below: 3 compounds and their reported DC50/EC50.
compound	target of assay	DC50/EC50
CC[C@H](C)[C@H](NC(=O)[C@H](Cc1ccc(O)cc1)NC(=O)[C@@H]1CCCN1C(=O)[C@H](CCCNC(=N)N)NC(=O)[C@H](CCCNC(=N)N)NC(=O)[C@@H]1CCCN1C(=O)[C@H](CCC(=O)O)NC(=O)[C@H](CC(N)=O)NC(=O)[C@H](CCC(=O)O)NC(=O)[C@H](Cc1ccc(O)cc1)NC(=O)[C@H](CC(C)C)NC(=O)[C@@H]1CCC(=O)N1)C(=O)N[C@@H](CC(C)C)C(=O)O [[E6] NT]	neurotensin receptors (HT-29 cells) (Homo sapiens)	12
CC[C@H](C)[C@H](NC(=O)[C@H](Cc1ccc(O)cc1)NC(=O)[C@@H]1CCCN1C(=O)[C@H](CCCNC(=N)N)NC(=O)[C@H](CCCNC(=N)N)NC(=O)[C@@H]1CCCN1C(=O)[C@H](CCCCN)NC(=O)[C@H](CC(N)=O)NC(=O)[C@H](CCCCN)NC(=O)[C@H](Cc1ccc(O)cc1)NC(=O)[C@H](CC(C)C)NC(=O)[C@@H]1CCC(=O)N1)C(=O)N[C@@H](CC(C)C)C(=O)O [[K4] NT]	neurotensin receptors (HT-29 cells) (Homo sapiens)	22
CC[C@H](C)[C@H](NC(=O)[C@H](Cc1ccc(O)cc1)NC(=O)[C@@H]1CCCN1C(=O)[C@H](CCCCN)NC(=O)[C@H](CCCCN)NC(=O)[C@@H]1CCCN1C(=O)[C@H](CCCCN)NC(=O)[C@H](CC(N)=O)NC(=O)[C@H](CCC(=O)O)NC(=O)[C@H](Cc1ccc(O)cc1)NC(=O)[C@H](CC(C)C)NC(=O)[C@@H]1CCC(=O)N1)C(=O)N[C@@H](CC(C)C)C(=O)O [[K8, K9] NT] ([pGlu]LYENKPKKPYIL-OH)	neurotensin receptors (HT-29 cells) (Homo sapiens)	3.3

We next turn to a different compound, shown below.
Input line: Please report the measured DC50/EC50 for CC[C@H](C)[C@H](NC(=O)[C@H](Cc1ccc(O)cc1)NC(=O)[C@@H]1CCCN1C(=O)[C@H](CCCNC(=N)N)NC(=O)[C@H](CCCNC(=N)N)NC(=O)[C@@H]1CCCN1C(=O)[C@H](CCCCN)NC(=O)[C@H](CC(N)=O)NC(=O)[C@H](C)NC(=O)[C@H](Cc1ccc(O)cc1)NC(=O)[C@H](CC(C)C)NC(=O)[C@@H]1CCC(=O)N1)C(=O)N[C@@H](CC(C)C)C(=O)O [[A4] NT]
Output line: 20
